# measurementTarget: HIV-1 Env of pseudovirus isolate MGRM-G-027 (subtype G) (HIV-1)
# experimentalProtocol: cell-based or functional assay
testReadout: IC50 (µg/mL)
Give bare numbers, in µg/mL.

Endpoint output: IC50 of PGT-130 (antibody, V domains shown) VH: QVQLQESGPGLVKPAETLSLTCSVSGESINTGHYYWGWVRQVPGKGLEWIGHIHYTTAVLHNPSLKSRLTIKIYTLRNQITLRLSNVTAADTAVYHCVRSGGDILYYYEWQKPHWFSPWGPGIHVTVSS VL: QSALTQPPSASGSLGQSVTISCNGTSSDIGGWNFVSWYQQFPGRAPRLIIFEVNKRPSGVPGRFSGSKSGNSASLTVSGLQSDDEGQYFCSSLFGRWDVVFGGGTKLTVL . Value?
4.14
